- PROTOCOL: Cytotoxicity activity against human HepG2 cells assessed by CellTiter-Glo luminescent cell viability assay.
- Type: toxicity, cell-based
- Parameters: assay stage confirmatory assay, source tissue liver
- EXPERIMENTAL SETUP: HepG2 cells, read-out: IC50 relative
Active and inactive are the calls of the source. No rule for the calls is given here.
Field 'call' accepts 1 = active, -1 = inactive

Recorded results for 8 molecules are shown here.
[[record]]
molecule = "Cc1c(-c2ccc(N3CCc4cccc(C(=O)Nc5nc6ccccc6s5)c4C3)nc2C(=O)O)cnn1CC12CC3CC(CC(C3)C1)C2"
cat = 1

[[record]]
molecule = "O=C(c1cccs1)c1no[n+]([O-])c1C(=O)c1cccs1"
cat = 1

[[record]]
molecule = "COc1ccc(OCCN2CCN(C(=O)c3ccc(OCc4cn5ccccc5n4)cc3)CC2)cc1"
cat = 1

[[record]]
molecule = "CN(C)S(=O)(=O)c1cccc(-n2sc3ccccc3c2=O)c1"
cat = 1

[[record]]
molecule = "CN1CCN(CCCCOc2ccc(-c3ccccc3)cc2)CC1"
cat = 1

[[record]]
molecule = "Cc1ccc(-c2cc3c(=O)n(Cc4noc(CN5CCN(C)CC5)n4)ccn3n2)cc1"
cat = 1

[[record]]
molecule = "O=C(NCCCN1CCOCC1)C1CCN(c2nn3cc(-c4ccc(F)cc4)nc3s2)CC1"
cat = 1

[[record]]
molecule = "COc1cccc2c(NCc3ccccc3)nc(-n3c(N)nc4ccccc43)nc12"
cat = 1


Then there is this molecule:
Query: What was the test verdict on CNC(=O)c1ccc(Nc2ncc(C(F)(F)F)c(NCc3nccnc3N(C)S(C)(=O)=O)n2)cc1 [DEFACTINIB] ?
Response: -1

---

- PROTOCOL: Cytotoxicity activity against human HepG2 cells assessed by CellTiter-Glo luminescent cell viability assay.
- Format: toxicity, cell-based
- Set-up: assay stage confirmatory assay, source tissue liver
- EXPERIMENTAL SETUP: HepG2 cells, read-out: IC50 relative
Active and inactive are the calls of the source. No rule for the calls is given here.
ASSAY METRIC: CC50

Below are worked cases with known answers.
[[record]]
smiles_record = "O=C(Nc1nc(-c2ccc(F)cc2)n[nH]1)c1ccco1"
assay_metric = "CC50"
result = "3.4 µM (active)"

[[record]]
smiles_record = "CS(=O)(=O)N1CCc2ccc(NC(=O)Nc3ccc(Cl)cc3)cc21"
assay_metric = "CC50"
result = "3.9 µM (inactive)"

[[record]]
smiles_record = "FC(F)c1nc2ccccc2n1-c1nc(N2CCOCC2)nc(N2CCOCC2)n1"
assay_metric = "CC50"
result = "1.2 µM (active)"

[[record]]
smiles_record = "COc1cccc(C(=O)Nc2ncc(Cc3cccc(C(F)(F)F)c3)s2)c1"
assay_metric = "CC50"
result = "8 µM (active)"

[[record]]
smiles_record = "O=C(Cc1cccc(F)c1)Nc1cccc2ncccc12"
assay_metric = "CC50"
result = "14.5 µM (inactive)"

[[record]]
smiles_record = "CC(=O)c1ccc(NC(=O)c2cccc3cccnc23)cc1"
assay_metric = "CC50"
result = "0.9 µM (active)"

[[record]]
smiles_record = "COCCNc1ncnc2scc(-c3ccccc3)c12"
assay_metric = "CC50"
result = "8.6 µM (active)"

[[record]]
smiles_record = "N#Cc1cc2cc(CN3CCC(Nc4ncnc5sc(CC(F)(F)F)cc45)CC3)ccc2[nH]1"
assay_metric = "CC50"
result = "2.2 µM (active)"

[[record]]
smiles_record = "CCCc1cc(N2CCN(CCO)CC2)n2ncc(-c3ccccc3)c2n1"
assay_metric = "CC50"
result = "11.5 µM (active)"

[[record]]
smiles_record = "Cc1sc2c(c1C)C(c1ccc(Cl)cc1)=N[C@@H](CC(N)=O)c1nnc(C)n1-2"
assay_metric = "CC50"
result = "0.3 µM (active)"


Next up:
Query: CC50; subject: CCCCn1c(=O)c(C(=O)Nc2ccc(O)cc2)c(O)c2ccccc21
Response: 23 µM (inactive)
